// reported switch fluorescence ratio for each item listed
System: ATP;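 also: ATP exposure 15 min at 22 °C before imaging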
Test: switch fluorescence ratio, 500 uM ATP over buffer (Cy3 cluster intensity, sum of 5 cycles each) (fold (ratio)); higher = stronger signal-on switching upon ATP binding; sequences stand for … in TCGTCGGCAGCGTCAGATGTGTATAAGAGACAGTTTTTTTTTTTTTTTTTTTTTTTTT…TC
Conditions: aptamer strand: ATP DNA aptamer (quencher-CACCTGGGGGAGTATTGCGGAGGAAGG + anchor), 100 nM annealed; ATP concentration: 500 uM
Please reply with the value in numeric form only.

Sample answers from the record:
>  <chain>
GTGGATTATC

>  <parameterMeasured>
switch fluorescence ratio

>  <quantitativeReadout>
1.01

$$$$
>  <chain>
TGGTTGAACG

>  <parameterMeasured>
switch fluorescence ratio

>  <quantitativeReadout>
0.996

$$$$
>  <chain>
TATATAAATT

>  <parameterMeasured>
switch fluorescence ratio

>  <quantitativeReadout>
0.985

$$$$
>  <chain>
GTATTTTATT

>  <parameterMeasured>
switch fluorescence ratio

>  <quantitativeReadout>
1.01

$$$$
>  <chain>
AGACTGAGTT

>  <parameterMeasured>
switch fluorescence ratio

>  <quantitativeReadout>
0.984

$$$$
>  <chain>
AATAGCCTTG

>  <parameterMeasured>
switch fluorescence ratio

>  <quantitativeReadout>
1.02

$$$$

Give the measured switch fluorescence ratio for AATGGTGGCC
1

Give the measured switch fluorescence ratio for CCGGGGGGAG
1.02

Give the measured switch fluorescence ratio for TTAAAAAATG
1.03

Give the measured switch fluorescence ratio for AAGGGCGATT
1.02

Give the measured switch fluorescence ratio for TTTTACTCGA
1.03

Give the measured switch fluorescence ratio for TGTTTGGTCA
0.976

Give the measured switch fluorescence ratio for CCTAGCGGTG
1.12

Give the measured switch fluorescence ratio for TTGCTAAAAG
1.02

Give the measured switch fluorescence ratio for TTTGAATCG
1.01

Give the measured switch fluorescence ratio for GCGGTAGAGC
1.02

Give the measured switch fluorescence ratio for GTGATCTTAT
0.997

Give the measured switch fluorescence ratio for GCGGGGACGT
1.02

Give the measured switch fluorescence ratio for GTTGCTACTG
1.05

Give the measured switch fluorescence ratio for AGTGGAGCGG
0.995

Give the measured switch fluorescence ratio for ACTACGGATT
1.06

Give the measured switch fluorescence ratio for TGGTTTATTT
0.976

Give the measured switch fluorescence ratio for TTTTGAAATC
1

Give the measured switch fluorescence ratio for GTGGTAGTTC
0.983

Give the measured switch fluorescence ratio for ACAGACCTAA
1.14

Give the measured switch fluorescence ratio for CTTAGGTGAC
1.03

Give the measured switch fluorescence ratio for GGGTTCAGTG
0.982
